Data credit: ChEMBL document CHEMBL1201862

- Tested on: UACC-257
- protocol notes: NCI tumour cell line growth inhibition, 48 h
Activity calls are given as the source filed them. Rule as the data show it: active = GI50 up to about 1.1 µM and inactive = higher.
Outcomes: active, inactive

[
  {
    "compound": "CN1CCCN(C)CCCN(C)CCCN(C)CCC1",
    "class": "inactive"
  },
  {
    "compound": "COC(=O)C1=C(C(=O)OC)SC2(S1)C1=C(CCC1)SC(C(=O)OC)=C2C(=O)OC",
    "class": "inactive"
  },
  {
    "compound": "CNC(=O)c1nnn(Cc2ccccc2)c1S",
    "class": "inactive"
  },
  {
    "compound": "COc1ccc(C2C3=C(N=C4SC(C(C)=O)=C(C)N42)c2ccccc2CC3)cc1 (configuration not stated)",
    "class": "inactive"
  },
  {
    "compound": "N/C(=N/O)c1cn(C2OC(CO)C(O)C2O)c2ncnc(NO)c12 (configuration not stated)",
    "class": "active"
  },
  {
    "compound": "COC(=O)/C=C/c1ccc2c(c1)CCC2",
    "class": "inactive"
  },
  {
    "compound": "Clc1ccc(CCn2cncn2)cc1",
    "class": "inactive"
  },
  {
    "compound": "Cc1cc2c(C)nn(Cc3ccccc3)c2c(C(N)=O)c1C",
    "class": "inactive"
  },
  {
    "compound": "O=C(c1ccco1)c1ccccc1C(=O)c1ccco1",
    "class": "inactive"
  },
  {
    "compound": "CCOC(=O)/C(=C/c1ccc(C(F)(F)F)cc1)N(CC)CC",
    "class": "inactive"
  },
  {
    "compound": "Cc1cc(O)c(C(=O)CC2(O)C(=O)Nc3c(Cl)cc(Cl)cc32)c(=O)o1 (configuration not stated)",
    "class": "inactive"
  },
  {
    "compound": "COC(=O)c1ccc(NCc2cc(O)ccc2O)cc1O",
    "class": "inactive"
  }
]

---

- Tested on: HT-29
- protocol notes: NCI tumour cell line growth inhibition, 48 h
Activity calls are given as the source filed them. Rule as the data show it: active = GI50 up to about 1.1 µM and inactive = higher.
Listing of entries alongside the reported GI50.
measurement kind: GI50

[
  {
    "compound": "Nc1ccc(-c2nc3ccccc3s2)cc1",
    "target": "HT-29",
    "measured result": "19.4 µM (inactive)"
  },
  {
    "compound": "COC(=O)[C@@H](OC(C)=O)[C@@H](OC(C)=O)c1nnc2ccc(Cl)nn12",
    "target": "HT-29",
    "measured result": "> 100 µM (inactive)"
  },
  {
    "compound": "Cc1cc(C)nc(NS(=O)(=O)c2ccc(NC(=O)c3cccc4c(Nc5ccc(S(=O)(=O)Nc6nc(C)cc(C)n6)cc5)c5ccc(Cl)cc5nc34)cc2)n1",
    "target": "HT-29",
    "measured result": "40.6 µM (inactive)"
  },
  {
    "compound": "COc1ccc(C2[C@H]3C(=O)N(c4ccc(Cc5ccc(N6C(=O)[C@@H]7ON(c8ccccc8)C(c8ccc(OC)cc8)[C@@H]7C6=O)cc5)cc4)C(=O)[C@H]3ON2c2ccccc2)cc1 (some centres undefined)",
    "target": "HT-29",
    "measured result": "> 100 µM (inactive)"
  }
]

---

Listed here are molecules together with their documented GI50.
- Test system: SK-MEL-5
- protocol notes: NCI tumour cell line growth inhibition, 48 h
Calls of active or inactive are those of the source. Cut-off read from the data, not from the text of the source: active = GI50 up to about 1.1 µM and inactive = higher.

[
  {
    "molecule": "CC1=C(C#N)c2nc3ccccc3n2C(=O)C1(C)CCO (stereo not given)",
    "GI50": "> 100 µM (inactive)"
  },
  {
    "molecule": "Clc1ccc(CCn2cncn2)cc1",
    "GI50": "> 100 µM (inactive)"
  },
  {
    "molecule": "CN1C(=O)C(O)CC1c1ccccc1F (stereo not given)",
    "GI50": "> 100 µM (inactive)"
  },
  {
    "molecule": "CCOC(=O)N1CCN(C=S)CC1",
    "GI50": "> 100 µM (inactive)"
  },
  {
    "molecule": "O=C(OCCN=C1c2ccccc2CCc2ccccc21)c1ccccc1",
    "GI50": "> 100 µM (inactive)"
  },
  {
    "molecule": "Sc1nnc(C(c2ccccc2)c2ccccc2)[nH]1",
    "GI50": "> 100 µM (inactive)"
  },
  {
    "molecule": "Cc1ccc(C)c(NC(=O)C(=O)CC(=O)C2CCOC2=O)c1 (stereo not given)",
    "GI50": "> 100 µM (inactive)"
  },
  {
    "molecule": "COC(=O)C(CC(=O)c1cc2c(cc1I)OCO2)Cc1cc(OC)c(OC)c(OC)c1I (stereo not given)",
    "GI50": "13.6 µM (inactive)"
  },
  {
    "molecule": "CCOC(=O)C1=C(C(C)=O)CSC(c2ccccc2)=N1",
    "GI50": "> 100 µM (inactive)"
  },
  {
    "molecule": "Nc1n[n+]2cc(-c3ccccc3)n(CC(=O)c3ccccc3)c2s1",
    "GI50": "23.1 µM (inactive)"
  },
  {
    "molecule": "CCOC(=O)C(O)(NC(C)=O)C(F)(F)F (stereo not given)",
    "GI50": "> 100 µM (inactive)"
  },
  {
    "molecule": "NC(CCCCCP(=O)(c1ccccc1)C1C=CC=CC1)C(=O)O (stereo not given)",
    "GI50": "> 100 µM (inactive)"
  },
  {
    "molecule": "COc1ccc(-c2nc(-c3cnccn3)n(COCCO)n2)cc1",
    "GI50": "> 100 µM (inactive)"
  },
  {
    "molecule": "CC(C)(c1ccccc1)c1ccc(Oc2ccc(C#N)c(C#N)c2)cc1",
    "GI50": "20.7 µM (inactive)"
  },
  {
    "molecule": "O=C(O)CC(O)(C(=O)O)C(O)C(=O)O (stereo not given)",
    "GI50": "247 µM (inactive)"
  },
  {
    "molecule": "Nc1ncnc2c1ncn2C1C=C(CO)C(O)C1O (stereo not given)",
    "GI50": "20.3 µM (inactive)"
  },
  {
    "molecule": "O=C1C(c2ccccc2)=C(c2ccccc2)C1(Cl)Cl",
    "GI50": "2.82 µM (inactive)"
  },
  {
    "molecule": "Cc1ccc(Nc2ncnc3sc(SCc4ccccc4)nc23)cc1",
    "GI50": "82.6 µM (inactive)"
  },
  {
    "molecule": "COC(=O)/C=C\\C(C#N)(C#N)/N=C/c1ccc(Br)s1",
    "GI50": "11.9 µM (inactive)"
  },
  {
    "molecule": "Clc1ccc(Cc2nc3cc(Cl)c(Cl)cc3n2CC2CCCN3CCCCC23)cc1 (stereo not given)",
    "GI50": "11.3 µM (inactive)"
  },
  {
    "molecule": "CC(C)C1OC2(C)OC(=N)C1(C#N)C(C#N)(C#N)C2C (stereo not given)",
    "GI50": "13.7 µM (inactive)"
  },
  {
    "molecule": "COc1cc(/C=C2/SC(c3ccccc3)N(c3ccc(NC(C)=O)cc3)C2=O)cc(OC)c1OC (stereo not given)",
    "GI50": "34.4 µM (inactive)"
  },
  {
    "molecule": "COC(=O)c1ccccc1C1CN=NC12Cc1c(C)c3c(c(C)c1C2=O)CCC3 (stereo not given)",
    "GI50": "> 100 µM (inactive)"
  },
  {
    "molecule": "Cn1c(=O)oc2cc(C3CCC(=O)N3Cc3ccc(Cl)cc3)ccc21 (stereo not given)",
    "GI50": "> 100 µM (inactive)"
  },
  {
    "molecule": "COc1ccc(/C=C/C(=O)OC2CC34CCNC35CC(OC5(OC)C2OC)c2ccc(OC)c(O)c24)cc1O (stereo not given)",
    "GI50": "57.3 µM (inactive)"
  }
]
